Entries and their TGI
# Tested on: NCI-H522 lung
# Assay summary: NCI tumour cell line growth inhibition, 48 h
Reported endpoint: TGI

INSERT INTO measurements (molecule, assayed_system, observed_result) VALUES
  ('COc1ccc2nc3cc(Cl)ccc3c(Sc3ccc([N+](=O)[O-])cc3C)c2c1', 'NCI-H522 lung', '> 100 µM'),
  ('Cc1c(-c2ccccc2)cc(O)c2nc3ccccc3n12', 'NCI-H522 lung', '> 100 µM'),
  ('CN(/N=C/c1ccc(C(=O)O)cc1)C1=NCCCCN1', 'NCI-H522 lung', '> 100 µM'),
  ('O=C1/C(=C/C=C/c2ccccc2)CCC1CNc1ccccc1 (configuration not stated)', 'NCI-H522 lung', '> 22.7 µM'),
  ('CCOP(=Nc1ccc(N(C)C)cc1)(OCC)OCC', 'NCI-H522 lung', '> 100 µM'),
  ('CCOC(=O)c1ccc(N=C/C=C(\Nc2ccc(C(=O)OCC)cc2)C23CC4CC(CC(C4)C2)C3)cc1', 'NCI-H522 lung', '> 100 µM'),
  ('NC1=NN(c2ccccc2)C(=O)C1C(=O)CCC(=O)Nc1cccc(Cl)c1 (configuration not stated)', 'NCI-H522 lung', '> 100 µM'),
  ('ONC1=Nc2cc(Cl)ccc2C(=S)N2CSCC12 (configuration not stated)', 'NCI-H522 lung', '> 100 µM'),
  ('Cc1nc2ccc(Br)cc2c(=O)n1-c1nnc(C(C)(C)C)s1', 'NCI-H522 lung', '> 10 µM'),
  ('CS(=O)(=O)Nc1ccc2ccccc2c1-c1c(NS(C)(=O)=O)ccc2ccccc12', 'NCI-H522 lung', '> 25 µM'),
  ('Cc1ccc(S(=O)(=O)Nc2cccc3c(=O)[nH]cnc23)cc1', 'NCI-H522 lung', '> 100 µM'),
  ('O=C(O)CO[C@@]12C#C/C=C\C#C[C@@H]3N(C(=O)Oc4ccccc4)c4ccccc4[C@]14O[C@@]34CCC2', 'NCI-H522 lung', '85.9 µM'),
  ('Cc1cc(N(CC(C)Br)CC(C)Br)ccc1N=Nc1ccccc1C(=O)O (configuration not stated)', 'NCI-H522 lung', '9.02 µM'),
  ('O=C(O)c1ccc(CN2CCC(CN[C@@H]3C[C@H]3c3ccccc3)CC2)cc1', 'NCI-H522 lung', '> 100 µM'),
  ('CC1=C2C(O)C(C(C)C(=O)N(C)C)CCC2(C)C=CC1=O (configuration not stated)', 'NCI-H522 lung', '> 100 µM'),
  ('COc1ccc(/C=C2\N=C(N3CCCCC3)NC2=O)cc1', 'NCI-H522 lung', '> 100 µM'),
  ('CC(=O)OC1OC([C@H]2c3cccc(O)c3C(=O)c3c(O)cc(C)cc32)C(O)C(O)C1O (some centres not stated)', 'NCI-H522 lung', '19.9 µM');

###

TGI reference
# Tested on: SK-MEL-28 melanoma
# Assay summary: NCI tumour cell line growth inhibition, 48 h
Reported endpoint: TGI

INSERT INTO measurements (smiles_string, observed_result) VALUES
  ('Cn1c(Cl)c(/C=C2/C(=O)Nc3ccccc32)c2ccccc21', '19.7 µM'),
  ('COc1ccc2c(c1)C(=O)CCc1cc(OC)c(OC)c(OC)c1-2', '> 100 µM'),
  ('O=C(NC(=O)c1c(F)cccc1F)Nc1cccc(Oc2ncc(Cl)cn2)c1', '> 100 µM'),
  ('COc1ccc([C@@]2(O)c3c(ccc(O)c3OC)[C@H]2OC)c(OC)c1', '> 100 µM'),
  ('COc1ccc(NC(=O)CC/C(CC(=O)c2ccco2)=N/NC(=O)C(N)=O)cc1', '> 100 µM');

###

# Tested on: NCI-H460 lung
# Assay summary: NCI tumour cell line growth inhibition, 48 h
Reported endpoint: TGI

INSERT INTO measurements (molecule, observed_result) VALUES
  ('CC(C)NC(=O)OCc1c2c(n(C)c1COC(=O)NC(C)C)-c1cc(Cl)c(Cl)cc1CC2', '> 100 µM'),
  ('COC(=O)[C@@H]1C=C[C@H](OC2OC(COC(C)=O)C(OC(C)=O)C(OC(C)=O)C2OC(C)=O)n2c(=O)n(-c3ccccc3)c(=O)n21 (stereo not given in full)', '35.8 µM'),
  ('Cc1cc(C)c2c(=O)cc(-c3cccc4ccccc34)[nH]c2n1', '> 100 µM'),
  ('Clc1ccc(CCN(CCc2ccc(Cl)c(Cl)c2)CCN2CCCC2)cc1Cl', '3.34 µM'),
  ('CCOC(=O)Nc1cc2c(c(N)n1)N=C(c1ccc(OC)cc1)CN2', '0.256 µM'),
  ('C/C(=N\NS(=O)(=O)c1ccc(C)cc1)c1ccccn1', '> 100 µM'),
  ('CCCCCCNCCc1cnc[nH]1', '> 100 µM'),
  ('CC12C=CC(C)(C3C(=O)C4C(C(=O)C31)C1(C)C=CC4(C)S1=O)S2=O (stereo not given)', '> 100 µM'),
  ('CNC(=O)OCc1nc(SSC(C)(C)C)n(C)c1COC(=O)NC', '26.6 µM'),
  ('NC(N)=NS(=O)(=O)c1ccc(NNc2c3ccccc3nc3ccccc23)cc1', '23.4 µM');

###

Measured TGI, listed per entry for reference.
# System: NCI/ADR-RES ovarian
# Assay summary: NCI tumour cell line growth inhibition, 48 h
Reported endpoint: TGI

INSERT INTO assay_data (molecule, reported_endpoint, observed_result) VALUES
  ('CCN1C(=O)c2ccc3c4c(ccc(c24)C1=O)C(=O)N(CCCNCc1ccccc1OC)C3=O', 'TGI', '5.96 µM'),
  ('O=c1[nH]c2ccccc2cc1-c1nc2ccc(Cl)cc2[nH]1', 'TGI', '> 100 µM'),
  ('Cc1nnc(-c2ccc(C)c(-c3ccc(C(=O)Nc4cccc(C#N)c4)cc3)c2)o1', 'TGI', '> 25 µM'),
  ('O=S(=O)(O)c1ccc(N=Nc2ccc3c(S(=O)(=O)O)cccc3c2O)c2ccccc12', 'TGI', '> 100 µM'),
  ('Cc1c(-c2ccccc2)cc(O)c2nc3ccccc3n12', 'TGI', '> 100 µM'),
  ('CNc1ncccc1Nc1cc(=O)n2c3cccnc3n(C)c2c1', 'TGI', '> 100 µM'),
  ('COc1cc(C2c3cc4c(cc3OC(C)(N3CCCC3)C2C)OCO4)cc(OC)c1OC (stereo unspecified)', 'TGI', '0.522 µM'),
  ('O=C(O)CO[C@@]12C#C/C=C\C#C[C@@H]3N(C(=O)Oc4ccccc4)c4ccccc4[C@]14O[C@@]34CCC2', 'TGI', '> 100 µM'),
  ('CSC(SC)(C(=O)O)c1cc(-c2c(Cl)cccc2Cl)no1', 'TGI', '> 100 µM'),
  ('N[C@H](C(=O)O)[C@@H]1CC(Cl)=NO1', 'TGI', '530 µM'),
  ('C=CCCON(C(=O)OC(C)(C)C)c1ccccc1', 'TGI', '> 100 µM'),
  ('OC(CNc1ccccn1)c1ccccc1 (stereo unspecified)', 'TGI', '> 100 µM'),
  ('O=C1NC(=S)S/C1=C/c1ccc2c(c1)OCO2', 'TGI', '> 100 µM'),
  ('O=C1C(=O)c2ccccc2C(O)=C1C(C1=C(O)c2ccccc2C(=O)C1=O)c1ccc(Cl)cc1', 'TGI', '> 77.5 µM'),
  ('C=C(CCOC)CCC1CCCCC(CN(C)C)C1=O (stereo unspecified)', 'TGI', '> 100 µM'),
  ('CC(C)CNc1nc(-c2ccccc2Cl)nc2ccccc12', 'TGI', '42.6 µM'),
  ('O=C(NC1=C(Cl)C(=O)c2ccccc2C1=O)c1ccccc1', 'TGI', '39.1 µM'),
  ('CC(=O)C(C(c1ccccc1)N1CCOCC1)N1CCOCC1 (stereo unspecified)', 'TGI', '> 100 µM'),
  ('COc1ccc2c(c1)OC1=C(C(=O)OC1)C2c1cc(OC)c2c(c1)OCCO2 (stereo unspecified)', 'TGI', '0.0915 µM'),
  ('COC1OC(CS(=O)(=O)O)C(O)C(O)C1O (stereo unspecified)', 'TGI', '> 100 µM'),
  ('O=C1/C(=C/C=C/c2ccccc2)CCC1CNc1ccccc1 (stereo unspecified)', 'TGI', '> 100 µM'),
  ('COc1ccc2c(c1)NC1=C(C(=O)OC1)C2c1cc(OC)c(OC)c(OC)c1 (stereo unspecified)', 'TGI', '0.0277 µM'),
  ('O=C1C2=Cc3ccccc3OC2(O)Oc2cc3ccccc3cc21 (stereo unspecified)', 'TGI', '> 100 µM'),
  ('OC(CC1CCCCN1)c1ccc2c(c1)oc1ccccc12 (stereo unspecified)', 'TGI', '> 100 µM'),
  ('CCCCC1(NN=C2CCCCC2)C(=O)N(c2ccccc2)N(c2ccccc2)C1=O', 'TGI', '> 100 µM'),
  ('Cc1ccc(C2(O)CSC(=NC34CC5CC(CC(C5)C3)C4)N2C(P(=O)(O)O)P(=O)(O)O)cc1 (stereo unspecified)', 'TGI', '68.3 µM'),
  ('N#Cc1c(-c2ccc(Cl)cc2)c2c(n(C3OC(CO)C(O)C(O)C3O)c1=S)CCCC2 (stereo unspecified)', 'TGI', '> 100 µM'),
  ('C=C1c2c(C)nn(-c3ccc(C#CCOC4OC(CO)C(O)C(O)C4O)cc3)c2N(C)C23C[C@H]1C1(C)c4c(C)nn(-c5ccc(C#CCOC6OC(CO)C(O)C(O)C6O)cc5)c4N(C)C(C)(C[C@H]12)C3 (stereo partly specified)', 'TGI', '47 µM'),
  ('CNC1(c2cc3ccccc3s2)CCCCC1', 'TGI', '> 100 µM'),
  ('CS(=O)(=O)Nc1ccc2ccccc2c1-c1c(NS(C)(=O)=O)ccc2ccccc12', 'TGI', '> 25 µM'),
  ('ONC1=Nc2cc(Cl)ccc2C(=S)N2CSCC12 (stereo unspecified)', 'TGI', '> 100 µM'),
  ('Nc1ccccc1CCN1CCN(CCCc2ccccc2)CC1', 'TGI', '> 100 µM'),
  ('CC(=O)SCCC(NC(=S)Nc1ccccc1)P(=O)(Oc1ccccc1)Oc1ccccc1 (stereo unspecified)', 'TGI', '> 100 µM'),
  ('CC(C)CCNC(=O)c1ccc(CNC(=O)/C=C/c2cccc(Oc3ccccc3)c2)cc1', 'TGI', '> 100 µM'),
  ('Cc1cc(C)c2c(=O)cc(-c3cccc4ccccc34)[nH]c2n1', 'TGI', '> 25.9 µM'),
  ('COc1ccc(/C=C2\N=C(N3CCCCC3)NC2=O)cc1', 'TGI', '> 100 µM');

Sourced from PubChem BioAssay (NCI)
